The values you see were collected from patent US20230265151A1.

tested-target: human GLP-1 receptor (human, UniProt P43220 24-463)
measurement-description: cell-based or functional assay
*1 amine or outer side, *2 acyl side, *3 side chain or, on linkers, in order; H or OH if unused. Where no end group is shown, it is not given here. Side-chain parts run from the residue outwards. [ ]: non-standard residue; d: D form. The star is where a group is joined. Decanoyl(10-(4-HOOC-PhO)) = O=C(O)c1ccc(OCCCCCCCCCC(=O)*)cc1; αMePhe(2-F) = C[C@](N)(Cc1ccccc1F)C(=O)O; γGlu = O=C(O)[C@H](CCC(=O)[*:2])N[*:1]; αMeY = C[C@](N)(Cc1ccc(O)cc1)C(=O)O; αMeL = CC(C)C[C@](C)(N)C(=O)O; Orn = NCCC[C@H](N)C(=O)O; AEEA = NCCOCCOCC(=O)O; Aib = CC(C)(N)C(=O)O
readout-label: cAMP Emax (1.0% HSA)

Y[Aib]EGT[αMePhe(2-F)]TSDV[Aib]I[αMeL]LD[Orn]K([AEEA-AEEA-γGlu-Decanoyl(10-(4-HOOC-PhO))])AQ[Aib]K([AEEA-AEEA-γGlu-Decanoyl(10-(4-HOOC-PhO))])FI[dE][αMeY]LI[Orn]GGPSSGAPPPS-NH2 [Example 410] :: 93.1%
YXEGTXTSDXXIXLDXKAQXEXIXXLIKGGPSSGAPPPS (Y-Aib-EGT-αMeF(2F)-TSD-4Pal-Aib-I-αMeL-LD-Orn-K((2-[2-(2-Amino-ethoxy)-ethoxy]-acetyl)3-(γ-Glu)-CO-(CH2)10-CH3)AQ-Aib-E-αMeF-I-(D-Glu)-αMeY-LIK((2-[2-(2-Amino-ethoxy)-ethoxy]-acetyl)3-(γ-Glu)-CO-(CH2)10-CH3)GGPSSGAPPPS-NH2) [Example 438] :: 88.7%
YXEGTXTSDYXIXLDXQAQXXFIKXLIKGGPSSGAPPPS (Y-Aib-EGT-αMeF(2F)-TSDY-Aib-I-αMeL-LD-Orn-QAQ-Aib-Orn-FIK((2-[2-(2-Amino-ethoxy)-ethoxy]-acetyl)2-(γ-Glu)2-CO-(CH2)12-CO2H)-αMeY-LIK((2-[2-(2-Amino-ethoxy)-ethoxy]-acetyl)2-(γ-Glu)2-CO-(CH2)12-CO2H)GGPSSGAPPPS-NH2) [Example 480] :: 104%
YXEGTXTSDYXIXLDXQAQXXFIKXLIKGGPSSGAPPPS (Y-Aib-EGT-αMeF(2F)-TSDY-Aib-I-αMeL-LD-Orn-QAQ-Aib-Orn-FIK((2-[2-(2-Amino-ethoxy)-ethoxy]-acetyl)2-(γ-Glu)--C10_4CP)-αMeY-LIK((2-[2-(2-Amino-ethoxy)-ethoxy]-acetyl)2-(γ-Glu)--C10_4CP)GGPSSGAPPPS-NH2) [Example 492] :: 104%

Item: YXEGTXTSDXXIXLDXKAQXEXIXXLIEGGPSSGAPPPSK (not fully specified; Y-Aib-EGT-αMeF(2F)-TSD-4Pal-Aib-I-αMeL-LD-Orn-K((2-[2-(2-Amino-ethoxy)-ethoxy]-acetyl)2-(γ Glu)-CO-(CH2)10C3)AQ-Aib-E-αMeF-I-(D-Glu)-αMeY-LIEGGPSSGAPPPSK((2-[2-(2-Amino-ethoxy)-ethoxy]-acetyl)2-(γ-Glu)-CO-(CH2)10-CH3)-NH2) [Example 431] | cAMP Emax (1.0% HSA): 91.6%
